target: Glutamate receptor ionotropic, kainate 1 (Rattus norvegicus); test: Ability to inhibit domoic acid-induced increase of calcium in rat HEK293 cells expressing GluR5
Sequence (P22756 whole entry): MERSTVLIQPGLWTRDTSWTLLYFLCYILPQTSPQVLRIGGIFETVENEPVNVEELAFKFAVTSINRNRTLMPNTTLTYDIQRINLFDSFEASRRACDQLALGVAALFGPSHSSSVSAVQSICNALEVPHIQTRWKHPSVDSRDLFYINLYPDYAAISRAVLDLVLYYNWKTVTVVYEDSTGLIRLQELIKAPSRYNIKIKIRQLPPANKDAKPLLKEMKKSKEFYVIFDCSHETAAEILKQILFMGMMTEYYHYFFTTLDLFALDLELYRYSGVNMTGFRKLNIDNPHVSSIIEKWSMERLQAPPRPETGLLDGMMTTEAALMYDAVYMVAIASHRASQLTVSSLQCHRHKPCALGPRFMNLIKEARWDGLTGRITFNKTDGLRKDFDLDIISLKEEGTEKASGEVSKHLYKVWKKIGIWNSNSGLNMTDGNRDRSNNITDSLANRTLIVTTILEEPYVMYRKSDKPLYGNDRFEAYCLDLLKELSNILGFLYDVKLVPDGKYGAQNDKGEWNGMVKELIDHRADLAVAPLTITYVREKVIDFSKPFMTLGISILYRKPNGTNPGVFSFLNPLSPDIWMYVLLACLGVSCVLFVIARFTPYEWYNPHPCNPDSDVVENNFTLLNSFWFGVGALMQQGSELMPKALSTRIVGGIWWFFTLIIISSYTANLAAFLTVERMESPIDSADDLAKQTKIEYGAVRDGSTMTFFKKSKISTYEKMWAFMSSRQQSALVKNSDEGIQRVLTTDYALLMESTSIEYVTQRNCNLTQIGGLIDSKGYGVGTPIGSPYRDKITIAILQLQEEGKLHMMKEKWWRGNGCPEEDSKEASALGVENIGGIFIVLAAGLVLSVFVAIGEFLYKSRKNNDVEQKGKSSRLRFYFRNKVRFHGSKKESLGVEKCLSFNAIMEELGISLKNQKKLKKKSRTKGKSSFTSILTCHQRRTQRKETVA
QUANTITY NAME: IC50

Return value of IC50 for input `Nc1ccc(C2=NNC(=O)Cc3cc4c(cc32)OCCO4)cc1` , no commentary.
> 10 µM

* * *

tested on: Mus musculus; experiment: Protective index [PI = TD50/ED50 (from clonic phase of the audiogenic seizures)] in mice at 3.3-200 umol/kg, ip; format: functional
QUANTITY NAME: Ratio TD50/ED50
Could you respond with only the numeric value?

Some compounds with recorded Ratio TD50/ED50:
>>> quantitative_result("Nc1ccc(C2=NNC(=O)Cc3cc4c(cc32)OCO4)cc1")
4.5
>>> quantitative_result("CCNC(=O)N1N=C(c2ccc(N)cc2)c2cc3c(cc2CC1=O)OCO3")
3.8
>>> quantitative_result("CNC(=O)N1N=C(c2ccc(N)cc2)c2cc3c(cc2CC1=O)OCO3")
3.9
>>> quantitative_result("CC1=NN=C(c2ccc(N)cc2)c2cc3c(cc2C1)OCO3 [GYKI-52466]")
2.1

Now consider the entry below.
Return value of Ratio TD50/ED50 for input `CNC(=O)N1N=C(c2ccc(N)cc2)c2cc3c(cc2CC1=O)OCCO3` , no commentary.
2.1

The measured values listed here are drawn from ChEMBL document CHEMBL1148548.
